# TARGET DESC: IL-10 (Homo sapiens, UniProt P22301 P22301:19-178)
# Sequence (P22301 19-178, one chain of several): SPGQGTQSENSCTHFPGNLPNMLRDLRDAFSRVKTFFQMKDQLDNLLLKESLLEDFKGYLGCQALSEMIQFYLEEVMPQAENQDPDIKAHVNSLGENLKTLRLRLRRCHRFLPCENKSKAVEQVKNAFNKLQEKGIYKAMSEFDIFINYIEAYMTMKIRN
# PROTOCOL DESCRIPTION: filter; group statement, at 250 nM IL-10
# CONDITION: tags: Bachem or R&D Systems; chain copies: 2
OUTCOME MEASURE: binding result

BINDER	OBSERVED
IL-10 ligand 68 (ssRNA, 2'-F C and U) RNA: GGGAGACAAGAAUAAACGCUCAAACAUCGUAUAAUCUCUCUAAGAGCCUGGAAUACGAUGAAUUCGACAGGAGGCUCACAACAGGC	binds
IL-10 ligand 64b (ssRNA, 2'-F C and U) RNA: GGGAGACAAGAAUAAACGCUCAAACAUCGUAUAACUCUAAGUGCCUGGAUAUACGAUGAAUUCGACAGGAGGCUCACAACAGGC	binds
IL-10 ligand 57 (ssRNA, 2'-F C and U) RNA: GGGAGACAAGAAUAAACGCUCAAAUCCCAAUCUCUAAGAGCCUGGAUGAGAAUGCGCAUUGGGCUUCGACAGGAGGCUCACAACAGGC	binds
IL-10 ligand 6 (ssRNA, 2'-F C and U) RNA: GGGAGACAAGAAUAAACGCUCAAAUCCCAAUCUCUAAGAGCCUGGAUAAGAAUGCGCAUUGGGCUUCGACAGGAGGCUCACAACAGGC	binds
